# measurement.description: Drying behaviour of crystallisates in dependence on residual moisture and product purity (tempering in sealed vials, visual points classification)
# Type: physicochemical
# Parameters: key: 5 points=sample unchanged; 4 points=sample compacted/started to dissolve; 3 points=sample visibly started to dissolve; 2 points=sample cloudy highly viscous solution; 1 point=sample dissolved to clear solution
# test.conditions: Temperature 80 °C, test duration 5 h, sealed vial, shaken
Below is a list of entries, each paired with its recorded Visual classification at the end of the tempering step (points system) value.
property.measured: Visual classification at the end of the tempering step (points system)

O=P(O)(O)CN(CCN(CP(=O)(O)O)CP(=O)(O)O)CCN(CP(=O)(O)O)CP(=O)(O)O [washed quality 11 [% by mass] residual moisture] : 5
O=P(O)(O)CN(CCN(CP(=O)(O)O)CP(=O)(O)O)CCN(CP(=O)(O)O)CP(=O)(O)O [unwashed quality 51 [% by mass] residual moisture] : 1
O=P(O)(O)CN(CCN(CP(=O)(O)O)CP(=O)(O)O)CCN(CP(=O)(O)O)CP(=O)(O)O [unwashed quality 47 [% by mass] residual moisture] : 1
O=P(O)(O)CN(CCN(CP(=O)(O)O)CP(=O)(O)O)CCN(CP(=O)(O)O)CP(=O)(O)O [unwashed quality 36 [% by mass] residual moisture] : 1
O=P(O)(O)CN(CCN(CP(=O)(O)O)CP(=O)(O)O)CCN(CP(=O)(O)O)CP(=O)(O)O [unwashed quality 40 [% by mass] residual moisture] : 1
O=P(O)(O)CN(CCN(CP(=O)(O)O)CP(=O)(O)O)CCN(CP(=O)(O)O)CP(=O)(O)O [unwashed quality 31 [% by mass] residual moisture] : 1
O=P(O)(O)CN(CCN(CP(=O)(O)O)CP(=O)(O)O)CCN(CP(=O)(O)O)CP(=O)(O)O [washed quality 53 [% by mass] residual moisture] : 1
O=P(O)(O)CN(CCN(CP(=O)(O)O)CP(=O)(O)O)CCN(CP(=O)(O)O)CP(=O)(O)O [unwashed quality 19 [% by mass] residual moisture] : 2
O=P(O)(O)CN(CCN(CP(=O)(O)O)CP(=O)(O)O)CCN(CP(=O)(O)O)CP(=O)(O)O [unwashed quality 24 [% by mass] residual moisture] : 1
